test system: Vero; assay: Cytotoxicity against African green monkey Vero cells measured after 24 hrs by resazurin dye based fluorescence assay; assay type: cell-based; conditions: Chlorocebus sabaeus
pIC50: −log10 of the molar value.

testSmiles | pIC50
O=C1c2cccc3cccc(c23)C(=O)N1CCCCCCNc1ccnc2cc(Cl)ccc12 | 3.66
O=C1c2cccc3c(N4CCOCC4)ccc(c23)C(=O)N1CCCCCCNc1ccnc2cc(Cl)ccc12 | 3.73
O=C1c2cccc3c(N4CCOCC4)ccc(c23)C(=O)N1CCNc1ccnc2cc(Cl)ccc12 | 4.57
O=C1c2cccc3cccc(c23)C(=O)N1CCNc1ccnc2cc(Cl)ccc12 | 3.60
O=C1c2cccc3c(N4CCOCC4)ccc(c23)C(=O)N1CCCCNc1ccnc2cc(Cl)ccc12 | 4.90

----------
experiment: Selectivity index, ratio of IC50 for African green monkey Vero cells to IC50 for D-sorbitol synchronized ring stage of chloroquine-resistant Plasmodium falciparum W2; assay type: toxicity; settings: read-out: Ratio IC50

testSmiles | selectivity ratio
O=C1c2cccc3c(N4CCN(CCO)CC4)ccc(c23)C(=O)N1CCCNc1ccnc2cc(Cl)ccc12 | 4190
O=C1c2cccc3c(N4CCCCC4)ccc(c23)C(=O)N1CCCNc1ccnc2cc(Cl)ccc12 | 3910
O=C1c2cccc3c(N4CCCCC4)ccc(c23)C(=O)N1CCCCCCNc1ccnc2cc(Cl)ccc12 | 1420
O=C1c2cccc3cccc(c23)C(=O)N1CCCCNc1ccnc2cc(Cl)ccc12 | 186
O=C1c2cccc3c(N4CCN(CCO)CC4)ccc(c23)C(=O)N1CCCCCCNc1ccnc2cc(Cl)ccc12 | 109
O=C1c2cccc3c(Br)ccc(c23)C(=O)N1CCCNc1ccnc2cc(Cl)ccc12 | 179
O=C1c2cccc3cccc(c23)C(=O)N1CCNc1ccnc2cc(Cl)ccc12 | 4440
O=C1c2cccc3c(N4CCN(CCO)CC4)ccc(c23)C(=O)N1CCCCCCCCNc1ccnc2cc(Cl)ccc12 | 797
O=C1c2cccc3c(Br)ccc(c23)C(=O)N1CCCCNc1ccnc2cc(Cl)ccc12 | 262

----------
system: Vero; test: Cytotoxicity against African green monkey Vero cells measured after 24 hrs by resazurin dye based fluorescence assay; assay type: cell-based; conditions: Chlorocebus sabaeus
pIC50: −log10 of the molar value.
metric: pIC50

testSmiles | reportedResult
O=C1c2cccc3c(N4CCOCC4)ccc(c23)C(=O)N1CCCCCCCCNc1ccnc2cc(Cl)ccc12 | 3.76
O=C1c2cccc3c(N4CCN(CCO)CC4)ccc(c23)C(=O)N1CCCCCCCCNc1ccnc2cc(Cl)ccc12 | 3.77
O=C1c2cccc3c(N4CCCCC4)ccc(c23)C(=O)N1CCCCCCNc1ccnc2cc(Cl)ccc12 | 3.73
O=C1c2cccc3c(N4CCN(CCO)CC4)ccc(c23)C(=O)N1CCCCNc1ccnc2cc(Cl)ccc12 | 4.50
O=C1c2cccc3cccc(c23)C(=O)N1CCCCCCCCNc1ccnc2cc(Cl)ccc12 | 3.69
O=C1c2cccc3c(N4CCCCC4)ccc(c23)C(=O)N1CCCCCCCCNc1ccnc2cc(Cl)ccc12 | 3.76
O=C1c2cccc3c(N4CCOCC4)ccc(c23)C(=O)N1CCCNc1ccnc2cc(Cl)ccc12 | 4.16
O=C1c2cccc3c(N4CCCCC4)ccc(c23)C(=O)N1CCNc1ccnc2cc(Cl)ccc12 | 3.90
O=C1c2cccc3cccc(c23)C(=O)N1CCCNc1ccnc2cc(Cl)ccc12 | 5.50

----------
system: Plasmodium falciparum; assay: Antiplasmodial activity against D-sorbitol synchronized ring stage of chloroquine-resistant Plasmodium falciparum W2 assessed as parasite growth inhibition measured after 48 hrs by YOYO-1 dye based FACSort flow cytometry analysis; type: functional, organism-based; details: W2, 48 h
pIC50: −log10 of the molar value.
metric: pIC50

molecule | metric | modifier | reportedResult
O=C1c2cccc3cccc(c23)C(=O)N1CCCCCCNc1ccnc2cc(Cl)ccc12 | pIC50 | = | 6.41
O=C1c2cccc3c(Br)ccc(c23)C(=O)N1CCCNc1ccnc2cc(Cl)ccc12 | pIC50 | = | 7.22
O=C1c2cccc3cccc(c23)C(=O)N1CCCCCCCCNc1ccnc2cc(Cl)ccc12 | pIC50 | = | 6.45
O=C1c2cccc3c(N4CCCCC4)ccc(c23)C(=O)N1CCCCCCNc1ccnc2cc(Cl)ccc12 | pIC50 | = | 6.89
O=C1c2cccc3cccc(c23)C(=O)N1CCNc1ccnc2cc(Cl)ccc12 | pIC50 | = | 7.25
O=C1c2cccc3c(Br)ccc(c23)C(=O)N1CCCCCCNc1ccnc2cc(Cl)ccc12 | pIC50 | = | 6.79
O=C1c2cccc3c(N4CCN(CCO)CC4)ccc(c23)C(=O)N1CCCNc1ccnc2cc(Cl)ccc12 | pIC50 | = | 7.81
O=C1c2cccc3c(N4CCN(CCO)CC4)ccc(c23)C(=O)N1CCCCCCNc1ccnc2cc(Cl)ccc12 | pIC50 | = | 6.92
O=C1OC(=O)c2ccc(Br)c3cccc1c23 | pIC50 | < | 5.00
O=C1c2cccc3c(Br)ccc(c23)C(=O)N1CCCCCCCCNc1ccnc2cc(Cl)ccc12 | pIC50 | = | 6.25
O=C1c2cccc3c(N4CCCCC4)ccc(c23)C(=O)N1CCCNc1ccnc2cc(Cl)ccc12 | pIC50 | = | 7.29
O=C1c2cccc3c(N4CCN(CCO)CC4)ccc(c23)C(=O)N1CCNc1ccnc2cc(Cl)ccc12 | pIC50 | = | 7.39
O=C1c2cccc3c(N4CCOCC4)ccc(c23)C(=O)N1CCCCCCNc1ccnc2cc(Cl)ccc12 | pIC50 | = | 7.07
O=C1c2cccc3c(N4CCN(CCO)CC4)ccc(c23)C(=O)N1CCCCCCCCNc1ccnc2cc(Cl)ccc12 | pIC50 | = | 6.67
O=C1c2cccc3c(N4CCCCC4)ccc(c23)C(=O)N1CCCCNc1ccnc2cc(Cl)ccc12 | pIC50 | = | 7.02
O=C1c2cccc3c(N4CCN(CCO)CC4)ccc(c23)C(=O)N1CCCCNc1ccnc2cc(Cl)ccc12 | pIC50 | = | 7.70
O=C1c2cccc3cccc(c23)C(=O)N1CCCCNc1ccnc2cc(Cl)ccc12 | pIC50 | = | 7.39
O=C1c2cccc3c(N4CCOCC4)ccc(c23)C(=O)N1CCNc1ccnc2cc(Cl)ccc12 | pIC50 | = | 6.92
O=C1OC(=O)c2cccc3cccc1c23 [1,8-NAPHTHALIC ANHYDRIDE] | pIC50 | < | 5.00
O=C1c2cccc3cccc(c23)C(=O)N1CCCNc1ccnc2cc(Cl)ccc12 | pIC50 | = | 6.83
O=C1c2cccc3c(N4CCOCC4)ccc(c23)C(=O)N1CCCCNc1ccnc2cc(Cl)ccc12 | pIC50 | = | 6.62
O=C1c2cccc3c(Br)ccc(c23)C(=O)N1CCNc1ccnc2cc(Cl)ccc12 | pIC50 | = | 7.28
O=C1c2cccc3c(N4CCCCC4)ccc(c23)C(=O)N1CCCCCCCCNc1ccnc2cc(Cl)ccc12 | pIC50 | = | 6.36
O=C1c2cccc3c(N4CCCCC4)ccc(c23)C(=O)N1CCNc1ccnc2cc(Cl)ccc12 | pIC50 | = | 6.83
O=C1c2cccc3c(N4CCOCC4)ccc(c23)C(=O)N1CCCCCCCCNc1ccnc2cc(Cl)ccc12 | pIC50 | = | 5.40
O=C1c2cccc3c(N4CCOCC4)ccc(c23)C(=O)N1CCCNc1ccnc2cc(Cl)ccc12 | pIC50 | = | 7.17
O=C1c2cccc3c(Br)ccc(c23)C(=O)N1CCCCNc1ccnc2cc(Cl)ccc12 | pIC50 | = | 7.27
